- Assayed system: hDHODH (Met30-Arg396) (Homo sapiens, UniProt Q02127)
- Construct: hDHODH (Met30-Arg396) was expressed and purified in the same manner as described in our recently published work; made in house
- Sequence (Q02127 29-395): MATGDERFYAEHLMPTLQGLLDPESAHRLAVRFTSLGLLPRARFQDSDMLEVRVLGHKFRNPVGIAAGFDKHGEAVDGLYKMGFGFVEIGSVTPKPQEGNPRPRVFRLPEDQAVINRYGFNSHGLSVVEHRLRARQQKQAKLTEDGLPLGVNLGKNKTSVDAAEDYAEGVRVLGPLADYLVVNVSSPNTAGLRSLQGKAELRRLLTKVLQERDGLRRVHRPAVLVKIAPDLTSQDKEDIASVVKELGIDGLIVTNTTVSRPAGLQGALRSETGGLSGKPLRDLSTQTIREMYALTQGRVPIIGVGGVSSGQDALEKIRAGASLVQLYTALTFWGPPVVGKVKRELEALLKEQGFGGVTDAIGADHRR
- Experimental details: hDHODH enzyme inhibition, DCIP assay
- Type: biochemical
- Cond: LLE = pIC50 − clogP
# if value of LLE reaches 3, tag Met; if it stays below, tag Not met

# example entries with known answers
Compound	Class
COc1cccc(-c2csc(N/N=C/c3ccccc3C(=O)O)n2)c1 [Compound 27]	Met
Oc1ccccc1/C=N/Nc1nc(-c2ccccc2)cs1 [Compound 8]	Not met
O=C(O)c1cccc(/C=N/Nc2nc(-c3ccccc3Cl)cs2)c1 [Compound 20]	Not met
Cc1ccc(-c2csc(N/N=C/c3ccccc3C(=O)O)n2)cc1 [Compound 29]	Not met
Nc1cccc(C(=O)O)c1/C=N/Nc1nc(-c2ccccc2Cl)cs1 [Compound 25]	Not met

Let us examine a further case.
**Q:** // inclusive: LLE at least 3? input: O=C(O)c1ccccc1/C=N/Nc1nc(-c2ccccc2)cs1 [Compound 26]
**A:** Met

====

I'd appreciate it if you could supply LLE values for the items below.
- Assayed system: hDHODH (Met30-Arg396) (Homo sapiens, UniProt Q02127)
- Construct: hDHODH (Met30-Arg396) was expressed and purified in the same manner as described in our recently published work; made in house
- Experimental details: hDHODH enzyme inhibition, DCIP assay
- Assay type: biochemical
- Cond: LLE = pIC50 − clogP
Numbers only.

CCOC(=O)c1ccccc1/C=N/Nc1nc(-c2ccccc2Cl)cs1 0.75

Consider the following items and state reported LLE for each.
1. COC(=O)c1ccccc1/C=N/Nc1nc(-c2ccccc2Cl)cs1
2. O=C(O)c1ccccc1/C=N/Nc1nc(-c2cc(Cl)ccc2Cl)cs1

**A:**
1. 1.02
2. 2.88

====

- Assayed system: hDHODH (Met30-Arg396) (Homo sapiens)
- Construct: hDHODH (Met30-Arg396) was expressed and purified in the same manner as described in our recently published work; made in house
- Experimental details: hDHODH enzyme inhibition, DCIP assay
- Assay type: biochemical
- Cond: hDHODH; mean ± SD of three independent experiments; IC50 measured if inhibition rate at 10 μM was larger than 50%
Task for the reader: assign each of the following compounds its reported IC50.

Cc1sc(N/N=C/c2cc([N+](=O)[O-])ccc2O)nc1-c1ccccc1 > 10 µM
O=C(O)c1ccc(/C=N/Nc2nc(-c3ccccc3Cl)cs2)cc1 > 10 µM
Brc1ccc(-c2csc(N/N=C/c3ccccc3)n2)cc1 > 10 µM
Oc1ccccc1/C=N/Nc1nc(-c2ccccc2)cs1 > 10 µM
O=C(O)c1ccccc1/C=N/Nc1nc(-c2ccccc2)cs1 0.183 µM

// next entry
**Q:** Tell me measured IC50 for `CCOC(=O)c1ccccc1/C=N/Nc1nc(-c2ccccc2Cl)cs1` please.
**A:** 1.87 µM

====

- Assayed system: hDHODH (Met30-Arg396) (Homo sapiens, UniProt Q02127)
- Construct: hDHODH (Met30-Arg396) was expressed and purified in the same manner as described in our recently published work; made in house
- Experimental details: hDHODH enzyme inhibition, DCIP assay
- Format: biochemical
- Cond: hDHODH; mean ± SD of three independent experiments; IC50 measured if inhibition rate at 10 μM was larger than 50%
Record form. Attribute: IC50. Fill in for each entry.
Numbers only, in µM.

Would you please look over these solved cases?
Compound	Assayed system	Measurement
NC(=O)c1cccc(-c2csc(N/N=C/c3ccccc3C(=O)O)n2)c1 [Compound 28]	hDHODH (Met30-Arg396) (Homo sapiens, UniProt Q02127)	1.18
O=Cc1ccccc1/C=N/Nc1nc(-c2ccccc2)cs1 [Compound 7]	hDHODH (Met30-Arg396) (Homo sapiens, UniProt Q02127)	0.365
Cc1ccc(-c2csc(N/N=C/c3ccccc3C(=O)O)n2)cc1 [Compound 29]	hDHODH (Met30-Arg396) (Homo sapiens, UniProt Q02127)	0.155

Then there is this compound:
**Q:** Provide only the value of recorded IC50 for O=C(O)c1ccccc1/C=N/Nc1nc(-c2ccc3ccccc3c2)cs1 [Compound 31]
**A:** 0.573

Where do these numbers come from? They come from paper PMC4595849.
